Origin of measurements: patent US20180008587A1

Molecular target: wild-type Androgen Receptor (AR-wt) (Homo sapiens, UniProt P10275)
Construct: expressed in transfected cells; host or cells: LNCaP (LNCaP AR (cs))
Sequence (P10275 1-920): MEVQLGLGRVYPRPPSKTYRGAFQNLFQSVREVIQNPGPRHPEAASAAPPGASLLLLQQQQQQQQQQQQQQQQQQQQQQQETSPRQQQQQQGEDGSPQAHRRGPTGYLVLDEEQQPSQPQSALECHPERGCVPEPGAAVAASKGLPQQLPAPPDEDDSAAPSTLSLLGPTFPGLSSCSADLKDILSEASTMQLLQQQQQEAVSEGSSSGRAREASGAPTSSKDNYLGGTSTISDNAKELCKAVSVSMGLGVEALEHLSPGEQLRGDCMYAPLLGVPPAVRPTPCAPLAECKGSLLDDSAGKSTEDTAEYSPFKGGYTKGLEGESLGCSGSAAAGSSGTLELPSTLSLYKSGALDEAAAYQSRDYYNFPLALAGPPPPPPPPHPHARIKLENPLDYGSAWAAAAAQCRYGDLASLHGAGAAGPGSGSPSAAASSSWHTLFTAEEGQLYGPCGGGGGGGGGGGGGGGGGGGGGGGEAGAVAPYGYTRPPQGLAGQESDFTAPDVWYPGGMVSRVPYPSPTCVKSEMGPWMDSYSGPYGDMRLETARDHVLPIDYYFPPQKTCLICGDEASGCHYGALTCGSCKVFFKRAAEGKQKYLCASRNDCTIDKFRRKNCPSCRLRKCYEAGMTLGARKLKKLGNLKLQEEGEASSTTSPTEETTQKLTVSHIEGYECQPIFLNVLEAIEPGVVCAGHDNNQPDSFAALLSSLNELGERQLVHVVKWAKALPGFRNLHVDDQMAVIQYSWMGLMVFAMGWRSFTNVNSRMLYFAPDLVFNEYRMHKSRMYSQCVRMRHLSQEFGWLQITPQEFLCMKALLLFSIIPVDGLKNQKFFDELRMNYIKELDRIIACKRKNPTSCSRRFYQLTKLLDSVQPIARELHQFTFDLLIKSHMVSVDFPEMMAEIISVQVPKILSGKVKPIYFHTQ
Assay: LNCaP-AR-wt ANT reporter assay (ARE firefly luciferase, antagonist mode)
Format: cell-based
Conditions: maximum % inhibition of R1881 control response over tested concentration range; read-out: LNCaP-AR-wt ANT MAX % Inh
Property name: Emax (%)

CNS(=O)(=O)c1ccc(N2C(=S)N(c3cnc(C#N)c(C(F)(F)F)c3)C(=O)C23CCC3)cc1 : 98
N#Cc1ncc(N2C(=O)C3(CCC3)N(c3ccc(C(=O)NCCc4cccnc4)c(F)c3)C2=S)cc1C(F)(F)F : 101
N#Cc1ncc(N2C(=O)C3(CCC3)N(c3ccc(C(=O)NCCc4ccncc4)c(F)c3)C2=S)cc1C(F)(F)F : 102
Cc1cc(N2C(=O)C3(CCC3)N(c3ccc(-c4cccnc4C)cc3)C2=S)cnc1C#N : 97.7
N#Cc1ncc(N2C(=O)C3(CCC3)N(c3ccc(OC4CCNCC4)cc3)C2=S)cc1C(F)(F)F : 97.5
N#Cc1ncc(N2C(=O)C3(CCC3)N(c3ccc(Oc4ncccn4)cc3)C2=S)cc1C(F)(F)F : 89.1
CN(CCCNC(=O)c1ccc(N2C(=S)N(c3cnc(C#N)c(C(F)(F)F)c3)C(=O)C23CCC3)cc1F)C1CCCC1 : 98.9
N#Cc1ncc(N2C(=O)C3(CCC3)N(c3ccc(C(=O)NCCCN4CCCC4=O)c(F)c3)C2=S)cc1C(F)(F)F : 99.3
CNC(=O)c1ccc(N2C(=S)N(c3cnc(C#N)c(C(F)F)c3)C(=O)C23CCC3)cc1F : 97.2
N#Cc1ncc(N2C(=O)C3(CCC3)N(c3cccc(OC(F)(F)F)c3)C2=S)cc1C(F)(F)F : 100
COc1cc(F)ccc1N1C(=S)N(c2cnc(C#N)c(C(F)(F)F)c2)C(=O)C12CCC2 : 95
N#Cc1ncc(N2C(=O)C3(CCC3)N(c3ccc(C(=O)NCCc4ccccc4)c(F)c3)C2=S)cc1C(F)(F)F : 100
N#Cc1ncc(N2C(=O)C3(CCC3)N(c3ccc(OCCN4CCNCC4)c(F)c3)C2=S)cc1C(F)(F)F : 95.7
Cc1cc(N2C(=O)C3(CCC3)N(c3ccc(-c4ccco4)cc3)C2=S)cnc1C#N : 91.7
N#Cc1ncc(N2C(=O)C3(CCC3)N(c3ccc(C(=O)NCCCO)c(F)c3)C2=S)cc1C(F)(F)F : 101
Cc1ccc(-c2ccc(N3C(=S)N(c4cnc(C#N)c(C)c4)C(=O)C34CCC4)cc2)o1 : 98

* * *

Target: wild-type Androgen Receptor (AR-wt) (Homo sapiens, UniProt P10275)
Construct: expressed in transfected cells; host or cells: LNCaP (LNCaP AR (cs))
Sequence (P10275 1-920): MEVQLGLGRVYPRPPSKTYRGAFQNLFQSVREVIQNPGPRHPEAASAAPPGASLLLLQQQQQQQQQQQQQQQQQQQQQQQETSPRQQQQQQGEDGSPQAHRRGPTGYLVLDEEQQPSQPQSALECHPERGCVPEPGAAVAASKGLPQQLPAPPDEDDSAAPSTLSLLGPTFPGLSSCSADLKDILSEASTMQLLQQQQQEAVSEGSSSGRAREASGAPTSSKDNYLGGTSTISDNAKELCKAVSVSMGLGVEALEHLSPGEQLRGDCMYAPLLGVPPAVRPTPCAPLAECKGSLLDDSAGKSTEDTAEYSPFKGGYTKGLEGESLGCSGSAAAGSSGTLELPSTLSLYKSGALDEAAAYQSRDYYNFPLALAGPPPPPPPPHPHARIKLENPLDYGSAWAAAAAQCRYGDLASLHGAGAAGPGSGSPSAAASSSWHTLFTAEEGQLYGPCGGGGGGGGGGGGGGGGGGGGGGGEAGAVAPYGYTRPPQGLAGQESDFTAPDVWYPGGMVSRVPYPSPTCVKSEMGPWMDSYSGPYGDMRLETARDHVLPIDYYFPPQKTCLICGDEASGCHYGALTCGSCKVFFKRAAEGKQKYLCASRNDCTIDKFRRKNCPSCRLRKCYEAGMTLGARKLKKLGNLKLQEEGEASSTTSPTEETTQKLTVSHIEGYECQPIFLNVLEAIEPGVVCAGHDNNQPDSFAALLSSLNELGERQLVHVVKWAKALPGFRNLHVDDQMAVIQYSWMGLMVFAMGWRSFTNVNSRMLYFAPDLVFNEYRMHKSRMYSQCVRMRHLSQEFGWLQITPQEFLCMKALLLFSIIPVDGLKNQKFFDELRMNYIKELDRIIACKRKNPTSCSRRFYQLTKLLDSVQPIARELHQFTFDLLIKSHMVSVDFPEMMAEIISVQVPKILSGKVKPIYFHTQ
Experiment: LNCaP-AR-wt AG reporter assay (ARE firefly luciferase, agonist mode)
Assay type: cell-based
Conditions: maximum % stimulation (agonist response) over tested concentration range; read-out: LNCaP-AR-wt AG MAX % Stim
Property name: Emax (%)

Cc1ccc(N2C(=S)N(c3cnc(C#N)c(C(F)(F)F)c3)C(=O)C2(C)C)cc1 : 1.3

P. N#Cc1ccc(N2C(=S)N(c3cnc(C#N)c(C(F)(F)F)c3)C(=O)C23CCC3)cc1
Q. Cc1cc(N2C(=O)C3(CCC3)N(c3ccc(OC4CCN(C)CC4)cc3)C2=S)cnc1C#N
Ask: Problem: Given the entries P and Q , determine which has the lower reported Emax. Mark your selection by writing its label.
Result: Q
(Q: 0.2%, P: 1.2%)

* * *

Target: F876L mutant Androgen Receptor (AR-F876L) (Homo sapiens, UniProt P10275, F877L)
Construct: expressed in transfected cells; host or cells: LNCaP (LNCaP F876L)
Assay: LNCaP-AR-F876L ANT reporter assay (ARE firefly luciferase, antagonist mode)
Assay type: cell-based
Conditions: read-out: LNCaP-AR-F876L ANT pIC50 (converted)
Method: A stable pooled-population cell line was generated using puromycin (Life Technologies) selection at 1:10,000 v/v. The protocol below was used for both cell lines and for testing of the compounds of Formula (I) of the present invention. LNCaP cells were grown to about 80% confluence, media removed and cells rinsed in Hank's balanced salt solution prior to separation from the plate with 0.05% Trypsin EDTA. […] After 1 h, plates were read for luminescence on a BMG Pherastar. […]
Property name: IC50 (µM)

// below: answered molecules
N#Cc1ncc(N2C(=O)C3(CCC3)N(c3ccc(C(=O)NCCCN4CCCC4)c(F)c3)C2=S)cc1C(F)(F)F : 0.158
N#Cc1ncc(N2C(=O)C3(CCC3)N(c3ccc4[nH]ncc4c3)C2=S)cc1C(F)(F)F : 0.257
N#Cc1ncc(N2C(=O)C3(CCC3)N(c3ccc(OCCCN4CCCC4)c(F)c3)C2=S)cc1C(F)(F)F : 0.316
N#Cc1ncc(N2C(=O)C3(CCC3)N(c3ccc(C(=O)NCCCc4ccccc4)c(F)c3)C2=S)cc1C(F)(F)F : 0.479
N#Cc1ncc(N2C(=O)C3(CCC3)N(c3ccc(C(=O)NCc4ccccc4)c(F)c3)C2=S)cc1C(F)(F)F : 0.851

a. N#Cc1ncc(N2C(=O)C3(CCC3)N(c3ccc(OCCN4CCCC4)c(F)c3)C2=S)cc1C(F)(F)F
b. N#Cc1ncc(N2C(=O)C3(CCC3)N(c3ccc(C(=O)NCC4CCCC4)c(F)c3)C2=S)cc1C(F)(F)F
Ask: Problem: Given the entries a and b , determine which has the lower reported IC50. Mark your selection by writing its label.
Result: b
